Assay: Viability of Vero cells (CC50)
Type: cell-based
Details: African green monkey; concentration that reduces viability of Vero cells
Structures can show the parent of a compound that is named as a salt.
measured_metric: CC50 (µM)
State the answer as a number, implicitly in µM.

compound	CC50 (µM)
Cc1cc2c(cc1C)N(CCCN(C)C)c1ccccc1S2 [TC84-124]	6.5
CN1CCCCC1CCN1c2ccccc2Sc2ccc(F)cc21 (stereo not shown) [TC84-110]	8.1

Now turn to the next compound.
Consider CN(C)CCCN1c2ccccc2Sc2ccc(C(F)(F)F)cc21 [Triflupromazine Hydrochloride] . Its measured CC50 is 7
